Source listed as patent US20220125051A1.

// reported pest or weed control at 500 g/ha per item
Test system: Euphorbia heterophylla (EPHHL)
Assay details: Post-emergence efficacy, Method A
Format: in vivo
Test parameters: Euphorbia heterophylla, post-emergence, 312 h; Application rate 500 g/Ha; evaluated after 13 days; 100=total damage to plant, 0=no damage to plant; read-out: Control of weed species after post-emergence application, EPHHL
Hi, when you answer, please include the unit after the number. Thanks!

O=S(=O)([O-])CC[n+]1ccc(-c2ncc(C3CC3)cn2)cn1	70%
CC(C)(C[n+]1ccc(-c2ncccn2)cn1)S(=O)(=O)[O-]	80%
O=C(O)CC[n+]1ccc(-c2ncc(F)cc2F)cn1	20%

Recorded pest or weed control at 500 g/ha of Cc1n[n+](CCC(=O)O)ccc1-c1ncccn1.O=C([O-])C(F)(F)F , please. 30%

Recorded pest or weed control at 500 g/ha of O=C(O)CC[n+]1ccc(-c2cnc(C(F)(F)F)cn2)cn1 , please. 80%

Recorded pest or weed control at 500 g/ha of Cc1n[n+](CCS(=O)(=O)[O-])ccc1-c1ncccn1 , please. 60%

Recorded pest or weed control at 500 g/ha of CCOP(=O)(CC[n+]1ccc(-c2cnccn2)cn1)OCC , please. 10%

Recorded pest or weed control at 500 g/ha of O=C(O)CC[n+]1ccc(-c2ccc(C(F)(F)F)nn2)cn1 , please. 100%

Recorded pest or weed control at 500 g/ha of Cc1cccnc1-c1cc[n+](CCS(=O)(=O)[O-])nc1 , please. 50%

----------
Tested on: Lolium perenne (LOLPE)
Assay details: Post-emergence efficacy, Method A
Type: in vivo
Test parameters: Lolium perenne, post-emergence, 312 h, Application Rate 500 g/Ha; evaluated after 13 days; Method A; read-out: Control of weed species after post-emergence application, LOLPE (100=total damage to plant; 0=no damage to plant)
// reported pest or weed control at 500 g/ha per item
Numbers only; they are read as %.

CCOP(=O)(CCC[n+]1ccc(-c2ncccn2)cn1)OCC	0
COC(=O)CC[n+]1ccc(-c2ccncc2)cn1	0
O=S(=O)([O-])OCC[n+]1ccc(-c2ncccn2)cn1	50

Recorded pest or weed control at 500 g/ha of O=c1[nH]c(-c2cc[n+](CCCS(=O)(=O)[O-])nc2)ncc1Cl , please. 10

Recorded pest or weed control at 500 g/ha of O=C(O)CC[n+]1ccc(-c2ccnc(C(F)(F)F)c2)cn1 , please. 70

----------
Tested on: Eleusine indica (ELEIN)
Assay details: Post-emergence efficacy, Method A
Assay type: in vivo
Test parameters: Eleusine indica, post-emergence, 312 h; Application Rate 500 g/Ha; evaluated after 13 days; Method A; read-out: Control of weed species after post-emergence application, ELEIN (100=total damage to plant; 0=no damage to plant)
Assay metric: pest or weed control at 500 g/ha (%)
Numbers only; they are read as %.

O=C(O)C(O)C[n+]1ccc(-c2ccncn2)cn1 (stereo not drawn)	70
Cc1cc(F)cnc1-c1cc[n+](CCCS(=O)(=O)[O-])nc1	10
COC(=O)C(C)[n+]1ccc(-c2ncccn2)cn1 (stereo not drawn)	30
O=C(O)CC[n+]1ccc(-c2ncc(CO)cn2)cn1	80
O=S(=O)([O-])CC[n+]1ccc(-c2ccnc(C(F)(F)F)c2)cn1	70

Recorded pest or weed control at 500 g/ha of O=S(=O)([O-])CC[n+]1ccc(-c2ccc(C(F)(F)F)cn2)cn1 , please. 60

Recorded pest or weed control at 500 g/ha of O=C(O)C(O)C[n+]1ccc(-c2ncccn2)cn1 (stereo not drawn) , please. 90

Recorded pest or weed control at 500 g/ha of N[C@H](CC[n+]1ccc(-c2ccncn2)cn1)C(=O)O , please. 10

Recorded pest or weed control at 500 g/ha of Cc1ccc(-c2cc[n+](CCS(=O)(=O)[O-])nc2)nc1 , please. 30

Recorded pest or weed control at 500 g/ha of O=S(=O)([O-])CC[n+]1ccc(-c2ncc(CO)cn2)cn1 , please. 40

Recorded pest or weed control at 500 g/ha of N#Cc1ccc(-c2cc[n+](CCS(=O)(=O)[O-])nc2)nc1 , please. 90

Recorded pest or weed control at 500 g/ha of CC(CC[n+]1ccc(-c2ncccn2)cn1)S(=O)(=O)[O-] (stereo not drawn) , please. 30

Recorded pest or weed control at 500 g/ha of Nc1nccc(-c2cc[n+](CCC(=O)O)nc2)n1 , please. 80

Recorded pest or weed control at 500 g/ha of Cc1cc(-c2ncccn2)cn[n+]1CCS(=O)(=O)[O-] , please. 90

Recorded pest or weed control at 500 g/ha of NC(=O)c1cnc(-c2cc[n+](CCC(=O)O)nc2)cn1 [Compound A202, 2,2,2-trifluoroacetate] , please. 20
